// provenance: the Immune Epitope Database (IEDB)

# tested target: HLA-B*44:02
# protocol details: IEDB peptide-MHC binding, purified MHC/direct/fluorescence; filed as Kd, often an IC50 or EC50 that approximates it; bounds were set here for any values at or beyond the usual limits of such assays
# condition context: source organism: Yersinia pestis
pKd: −log10 of the molar value.
assay readout: pKd

[[record]]
chain = "YGIPFPGSL"
measured_result = "≤ 4.70"


====

# tested target: HLA-A*11:01
# protocol details: IEDB peptide-MHC binding, purified MHC/direct/fluorescence; filed as Kd, often an IC50 or EC50 that approximates it; bounds were set here for any values at or beyond the usual limits of such assays
# condition context: source organism: Camelpox virus M-96
assay readout: Kd

[[record]]
chain = "GLYRLNFRR"
assay_readout = "Kd"
measured_result = "237 nM"

